# Tested on: Botrytis cinerea
# assay procedure: Test E: tomato botrytis, preventive spray on tomato seedlings
# condition set: 40 ppm (marked *); 100 = 100% disease control, 0 = no control
Marks after values point to notes of the source that are not given here.
measurement type: Test E disease control rating

Example entries begin here.
O=c1c(-n2cccn2)nc(Cl)c(-c2c(F)cc(F)cc2F)n1-c1cccc(Br)c1 [compound 351]	99* %
O=c1c(-n2cccn2)nc(Cl)c(-c2c(F)cccc2F)n1-c1ccccc1OC(F)(F)F [compound 397]	99* %
NC(=O)c1nc(Cl)c(-c2c(F)ccc(F)c2F)n(-c2ccccc2)c1=O [compound 419]	97* %
O=c1c(-n2cccn2)nc(Cl)c(-c2c(F)cc(F)cc2F)n1-c1cc(F)c(F)c(F)c1 [compound 410]	99* %
CC[C@H](C)Cn1c(-c2ccc(F)cc2Cl)c(Br)nc(N2CCC=N2)c1=O [compound 283]	98* %

Find the measured Test E disease control rating: item CCn1c(-c2ccc(F)cc2Cl)c(Cl)nc(C(N)=O)c1=O [compound 412] , target or system Botrytis cinerea.
29* %

Entry Cc1ccn(-c2nc(Cl)c(-c3c(F)cc(F)cc3F)n(-c3ccc(Cl)cc3)c2=O)n1 [compound 372] please
99* %

Now the molecule O=c1c(-n2cccn2)nc(Cl)c(-c2c(F)cc(F)cc2F)n1-c1ccc(F)c(Cl)c1 [compound 406]
99* %

Next entry: Cc1ccn(-c2nc(Cl)c(-c3c(F)cc(F)cc3F)n(-c3ccc(F)c(F)c3)c2=O)n1 [compound 366]
99* %

Same again, this time with COc1cccc(-n2c(-c3c(F)cccc3F)c(Cl)nc(-n3cccn3)c2=O)c1 [compound 394]
99* %

Entry to check: COC(=O)Cn1c(-c2c(F)cccc2F)c(Cl)nc(-n2ccc(C)n2)c1=O [compound 308]
0* %

Check Cc1nc(-c2ccccn2)c(=O)n(-c2ccccc2)c1-c1c(F)cccc1F [compound 359] too.
0* %

###

# Tested on: Rhizoctonia oryzae
# assay procedure: Test G: turf brown patch, preventive spray on creeping bent grass seedlings
# condition set: 40 ppm (*)
Marks after values point to notes of the source that are not given here.
measurement type: Test G disease control rating

CCCCn1c(-c2c(F)cc(F)cc2F)c(Cl)nc(-n2cccn2)c1=O [compound 227]	100* %
CCC(C)Cn1c(-c2c(F)cccc2F)c(Cl)nc(-n2cnc(C#N)c2C#N)c1=O (stereo not drawn) [compound 67]	0* %

Name the reported Test G disease control rating value associated with the compound CC(C)Cn1c(-c2ccc3c(c2)OCO3)c(Cl)nc(-n2cncn2)c1=O [compound 114]
0* %

How about Cc1cc(C)cc(-c2c(Cl)nc(-n3cncn3)c(=O)n2CC(C)C)c1 [compound 136] ?
0* %

Request: CC(C)Cn1c(-c2c(F)cccc2F)c(Cl)nc(-c2ccncc2)c1=O [compound 84]
0* %

Thanks! And COCC(C)n1c(-c2c(F)cccc2F)c(Cl)nc(-n2cncn2)c1=O (stereo not drawn) [compound 94] ?
0* %

Next up: CC(C)Cn1c(-c2c(F)cccc2F)c(Cl)nc(-n2ccnn2)c1=O [compound 215]
0* %

###

# Test system: Plasmopara viticola
# assay procedure: Test D: grape downy mildew, spray after inoculation of grape seedlings
# Format: in vivo
# condition set: Plasmopara viticola, 168 h, 200 ppm; 100 = 100% disease control, 0 = no control relative to controls; read-out: Test D disease control rating
Listing: pest or weed control at 200 ppm of selected compounds
Express the result in % but write the number alone.

CCC(C)c1c(Cl)nc(-n2cccn2)c(=O)n1CC(C)C (centres unmarked) [Compound 424]	0

Proceeding to the next compound to report its pest or weed control at 200 ppm.
Need pest or weed control at 200 ppm, item CCC(C)Cn1c(-c2ccc(F)cc2F)c(C)nc(C#N)c1=N (centres unmarked) [Compound 426]
0
